- system under test: P2X purinoceptor 7 (Homo sapiens, UniProt Q99572)
- assay details: Antagonist activity at human recombinant P2X7 receptor
Here the recorded IC50 is given for each entry.
Give a bare numeral; the unit nM is implied.

Request: // IC50 lookup, key: CSc1ccccc1Cn1cnnc1-c1cccc(C(F)(F)F)c1Cl
Response: 26.9

---

- assay details: Volume of distribution at terminal phase in rat at 5 umol/kg, iv
- Format: ADME, organism-based
- condition info: in vivo
readout label: Vd (L/kg)
Give a bare numeral; the unit L/kg is implied.

Request: // Vd lookup, key: Cc1ccccc1Cn1cnnc1-c1cccc(Cl)c1Cl
Response: 1.9

---

- system under test: P2X purinoceptor 7 (Homo sapiens)
- Sequence (Q99572 whole entry): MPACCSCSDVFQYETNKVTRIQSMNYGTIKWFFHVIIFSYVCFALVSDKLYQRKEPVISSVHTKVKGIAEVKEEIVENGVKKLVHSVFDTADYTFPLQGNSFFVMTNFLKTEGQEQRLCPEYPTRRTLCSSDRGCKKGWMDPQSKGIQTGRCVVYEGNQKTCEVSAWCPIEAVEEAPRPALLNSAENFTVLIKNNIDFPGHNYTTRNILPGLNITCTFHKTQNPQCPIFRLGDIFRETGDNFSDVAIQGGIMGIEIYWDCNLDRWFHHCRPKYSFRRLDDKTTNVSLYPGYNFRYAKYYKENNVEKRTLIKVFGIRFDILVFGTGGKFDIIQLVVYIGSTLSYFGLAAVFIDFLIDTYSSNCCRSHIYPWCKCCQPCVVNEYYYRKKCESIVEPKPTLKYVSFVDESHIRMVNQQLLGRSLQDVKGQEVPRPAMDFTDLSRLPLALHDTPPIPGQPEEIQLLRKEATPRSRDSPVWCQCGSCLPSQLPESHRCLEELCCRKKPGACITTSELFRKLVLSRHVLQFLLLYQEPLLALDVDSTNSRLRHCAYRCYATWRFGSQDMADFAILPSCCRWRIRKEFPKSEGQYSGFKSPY
- assay details: Antagonist activity at human recombinant P2X7 receptor
Sorting guide: entries reporting IC50 beneath 300 nM go in the y pile, the rest go in the n pile.

Request: Regarding Clc1cccc(-c2nncn2Cc2ccccc2)c1Cl , kindly confirm whether its IC50 is beneath 300 nM.
Response: n

Request: Regarding Cc1ccc(F)cc1Cn1cnnc1-c1cccc(Cl)c1Cl , kindly confirm whether its IC50 is beneath 300 nM.
Response: y

Request: Regarding Clc1ccc(Cn2cnnc2-c2cccc(Cl)c2Cl)c(Cl)c1 , kindly confirm whether its IC50 is beneath 300 nM.
Response: n

Request: Regarding Clc1cccc(-c2nncn2[C@H]2CCc3ccccc32)c1Cl , kindly confirm whether its IC50 is beneath 300 nM.
Response: y

Request: Regarding Clc1cccc(-c2cnnn2Cc2ccccc2)c1Cl , kindly confirm whether its IC50 is beneath 300 nM.
Response: n

Request: Regarding CS(=O)(=O)c1ccccc1Cn1cnnc1-c1cccc(C(F)(F)F)c1Cl , kindly confirm whether its IC50 is beneath 300 nM.
Response: y

Request: Regarding Clc1cccc(-c2ccnn2Cc2ccccc2)c1Cl , kindly confirm whether its IC50 is beneath 300 nM.
Response: n

Request: Regarding COc1cccc(Cn2cnnc2-c2cccc(Cl)c2Cl)c1OC , kindly confirm whether its IC50 is beneath 300 nM.
Response: y

Request: Regarding Clc1cccc(-n2nncc2Cc2ccccc2)c1Cl , kindly confirm whether its IC50 is beneath 300 nM.
Response: n

Request: Regarding CSc1ccccc1Cn1cnnc1-c1cccc(Cl)c1Cl , kindly confirm whether its IC50 is beneath 300 nM.
Response: y

Request: Regarding CC(c1ccccc1)n1cnnc1-c1cccc(Cl)c1Cl (configuration not stated) , kindly confirm whether its IC50 is beneath 300 nM.
Response: n
